Below, each entry is listed with its recorded IC50.
Target: Avi-KRAS WT (1-169) GppNHp/RAF1 RBD-3xFLAG (52-151) (Homo sapiens, UniProt P01116)
Construct: 50 nM Avi-KRAS WT (1-169) GppNHp
Sequence (P01116 1-169 isoform P01116-2): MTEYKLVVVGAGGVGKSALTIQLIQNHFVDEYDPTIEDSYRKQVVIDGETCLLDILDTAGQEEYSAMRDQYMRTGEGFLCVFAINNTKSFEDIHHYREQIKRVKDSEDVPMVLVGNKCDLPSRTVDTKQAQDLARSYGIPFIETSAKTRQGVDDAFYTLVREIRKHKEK
Assay: RAS-effector PPI HTRF disruption assay, Raf1-GppNHp-KRAS WT

Recorded IC50, per entry:
Nc1nc2c(-c3c(C(F)(F)F)cc4c(O[C@H]5CNC[C@H]5F)nc(OC[C@@]56CCCN5C[C@H](F)C6)nc4c3F)ccc(F)c2s1
1000 to 10000 nM
C[C@@H]1C[C@@H](Oc2nc(OC[C@@]34CCCN3C[C@H](F)C4)nc3c(F)c(-c4ccc(F)c5sc(N)nc45)c(C(F)(F)F)cc23)CN1 (atropisomer, axis not shown) [Compound 20]
1000 to 10000 nM

Output measured IC50 for this item: Nc1nc2c(-c3c(C(F)(F)F)cc4c(OC5CC6CC[C@H](C5)N6)nc(OCC56CCCN5CCC6)nc4c3F)ccc(F)c2s1 (stereo partly drawn)
≤ 100 nM
